System: H1975 cells
Assay: H1975 CTG proliferation assay
Type: cell-based
Details: Homo sapiens, NCI-H1975, H1975
readout_kind: pIC50
Please report pIC50 as the negative decimal logarithm of the molar concentration, giving only the number.

[ask] Read off the recorded pIC50 for Cc1nc(N)c(Cl)c(-c2nc3c4c(nc(OC[C@@]56CCCN5C[C@H](F)C6)nc4c2F)N([C@H](C)c2cccnc2N)CCO3)c1C(F)(F)F (single isomer, unassigned) [Example 601b]
[reply] 7.10
